Listing of recorded %Inh by entry.
System: EPHB2
Conditions: concentration: 1 μM, replicates: in singlicate; n = 1
Numeric only. Scale: %

>  <molecule>
COc1ccc(Nc2nccc(N3CCC(NC(=O)c4cc5ccccc5s4)C3)n2)cc1 (stereo not shown)

>  <test_system>
EPHB2

>  <%Inh, %>
12

$$$$
>  <molecule>
Cc1cccc2c(-c3ccncn3)c(-c3ccc(F)cc3)nn12

>  <test_system>
EPHB2;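 also: KINOMEscan kinase panel screen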

>  <%Inh, %>
0

$$$$

Please report the measured %Inh for `COc1ccc(CSc2nnc(-c3ccc4ncsc4c3)o2)cc1C(F)(F)F`
0

Please report the measured %Inh for `CN1c2ccc(-c3ccc(C(N)=O)cc3)cc2-c2[nH]ncc2S1(=O)=O`
0

Please report the measured %Inh for `CCCCc1nn2ncccc2c1-c1ccnc(NC2CC2)n1`
0

Please report the measured %Inh for `CNCc1ccc2nc(NC(=O)c3ccc(C(C)(C)C)cc3)cn2c1`
5

Please report the measured %Inh for Cn1cncc1C(=O)NC1CCN(c2ccnc(Nc3ccc(F)cc3)n2)C1 (stereo not shown)
0
